B1: C8orf76 (parent)
chain: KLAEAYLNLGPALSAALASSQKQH

variants of: B1; assay: protein stability index of a GFP-peptide fusion (GPS, HEK-293T) (PSI 1-6); higher = more stable; conditions: c terminus: a fixed tail appended;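 further: lentivirally expressed fusions sorted by FACS into six bins by GFP to DsRed ratio, PSI derived from sequencing read proportions per bin multiplied by bin number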
Measurement name: protein stability index

# Mut, Observed
records = [
    ("S19L", 2.35),
    ("A12R", 2.29),
    ("A18F", 3),
    ("L7Y", 2.07),
    ("K1E", 2.64),
    ("Q21D", 1.97),
    ("S20G", 2.46),
    ("S20M", 2.44),
    ("L13F", 2.03),
    ("A16H", 2.86),
    ("Q21K", 2.1),
    ("A15Y", 2.09),
    ("Q23A", 3.15),
    ("G10A", 1.92),
    ("N8H", 2.16),
    ("K1T", 2.78),
    ("L2F", 1.11),
    ("E4Q", 2.63),
    ("E4Y", 2.55),
    ("L17S", 2.03),
    ("G10H", 1.96),
    ("A18T", 1.52),
]
